Taken from ChEMBL document CHEMBL1201862.

Recorded measurements of GI50, one per entry
# Tested on: UO-31
# Experimental Protocol: NCI tumour cell line growth inhibition, 48 h
Calls of active or inactive are those of the source. Rule as the data show it: active = GI50 up to about 1.1 µM and inactive = higher.

Sample records with GI50:
Compound	Measured Value
COc1ccc(OC)c(C#Cc2ccc(OC)c(C(=O)NCCc3ccc(F)cc3)c2)c1	28.3 µM (inactive)
O=CC(O)C(O)C1OC(=O)c2cc(O)c(O)c(O)c2C2=C(O)C(O)=C3OC(=O)c4c(c(O)c(O)c5c4C3C2C(=O)O5)-c2c(cc(O)c(O)c2O)C(=O)OCC1O (centres undefined)	14.7 µM (inactive)
CCOc1ccc(NC(=O)/C(=N\N)C(C(=O)OC)c2nc3ccc(Cl)cc3nc2O)cc1 (centres undefined)	72.3 µM (inactive)
O=C(O)c1ccc([C@@H]2C(=O)N(O)[C@@H]3C=CC[C@@H]32)cc1	> 100 µM (inactive)
CNC(=O)OCc1c(COC(=O)NC)c(-c2ccc(Cl)c(Cl)c2)n2c1SCC2	7.46 µM (inactive)
N#CC1=C(C#N)/C(=C(\C#N)C(C#N)C#N)N=C1N	35.5 µM (inactive)

*Q* Query (compound): COc1cccc2c1C(=O)c1c(O)c3c(c(O)c1C2=O)C[C@@](O)(C(C)=O)CC3OC1CC(OC2CC(N)C(O)C(C)O2)C(O)C(C)O1 (some centres undefined) ; field requested: GI50
*A* 45.5 µM (inactive)

*Q* Query (compound): Cc1ccc(-c2cc(-c3ccco3)c(C#N)c(=O)n2C2OC(CO)C(O)C(O)C2O)cc1 (centres undefined) ; field requested: GI50
*A* 59.6 µM (inactive)

*Q* Query (compound): CC/C(=N\NS(=O)(=O)c1ccccc1)c1ccccc1 ; field requested: GI50
*A* > 100 µM (inactive)

*Q* Query (compound): COc1cc2oc(=O)ccc2cc1C1OC(=O)C2OC21C (centres undefined) ; field requested: GI50
*A* 64.9 µM (inactive)

*Q* Query (compound): O=c1[nH]c(=O)n(C2OC(CO)C(O)C2O)c2ncc(-c3ccc(-c4ccccc4)cc3)nc12 (centres undefined) ; field requested: GI50
*A* > 20 µM (inactive)

###

# Test system: NCI/ADR-RES
# Experimental Protocol: NCI tumour cell line growth inhibition, 48 h
Activity calls are given as the source filed them. No stated cut-off is given here; in the data, active = GI50 up to about 1.1 µM and inactive = higher.
Thanks in advance; please answer with one of these: True (active), False (inactive)

Worked set:
Compound	Tgt	Class
O=c1[nH]n(Cc2ccccc2Cl)c2ccc([N+](=O)[O-])cc12	NCI/ADR-RES	False
NC1=Nc2ccccc2Sc2cccc(F)c21	NCI/ADR-RES	False
CC1OC(OC2C(O)COC(OC3C(C)OC(OC4C(OC(=O)[C@]56CCC(C)(C)C[C@@H]5C5=CCC7[C@@]8(C)C[C@H](O)[C@H](OC9OC(CO)C(O)C(OC%10OC(CO)C(O)C(O)C%10O)C9O)[C@@](C)(CO)[C@@H]8CC[C@@]7(C)[C@]5(C)CC6)OCC(O)C4O)C(O)C3OC3OCC(O)(CO)C3O)C2O)C(O)C(O)C1O (stereo not given in full)	NCI/ADR-RES	False
CN(C)c1ccc(C(=NNC(=O)c2cc3ccccc3[nH]2)c2ccc(N(C)C)cc2)cc1	NCI/ADR-RES	True
NC(CCC(=O)NC(CSC(=O)N(O)c1ccc(Cl)cc1)C(=O)NCC(=O)O)C(=O)O (stereo not given)	NCI/ADR-RES	True
CC(Cn1c(=O)oc2ccccc21)N(C)C (stereo not given)	NCI/ADR-RES	False
Cc1ccc2nc3n(c2c1)C(c1c(F)cccc1F)SC3 (stereo not given)	NCI/ADR-RES	False
Nc1cccc(Nc2nc3ccccc3nc2NS(=O)(=O)c2ccccc2)c1	NCI/ADR-RES	False

*Q* Would you mind telling me which call this test gave C=CCN(CC=C)Cn1c(=S)sc2ccccc21 ?
*A* False

*Q* Would you mind telling me which call this test gave COc1cc(OCc2ccc3nc(OC)c(OC)nc3c2)cc(OC)c1OC ?
*A* False
